Where do these numbers come from? They come from ChEMBL document CHEMBL1158295.

- System: MCF7
- assay overview: Cytotoxicity against human MCF7 cells
- Assay type: functional
- experimental conditions: read-out: ED50 (the source's name)
property name: EC50
Please don't drop the unit; write it after the number.

// query Form entry - test system: MCF7; read-out: EC50; molecule: CCCCCCCCCCCC[C@H](O)[C@@H](O)CC[C@H](O)[C@@H]1CC[C@@H](C[C@H](O)CCCCC[C@@H](O)CC2=C[C@H](C)OC2=O)O1 [ANNOPENTOCIN B]
// result 3.56 µg/mL

// query Quick one: COc1cccc2c1C(=O)c1c(O)c3c(c(O)c1C2=O)C[C@@](O)(C(=O)CO)C[C@@H]3O[C@H]1C[C@H](N)[C@H](O)[C@H](C)O1 [DOXORUBICIN]
// result 0.495 µg/mL

// query Quick one: CCCCCCCCCCCC[C@H](O)[C@H](O)CC[C@H](O)[C@@H]1CC[C@@H](C[C@H](O)CCCCC[C@@H](O)CC2=C[C@H](C)OC2=O)O1 [ANNOPENTOCIN C]
// result 2.97 µg/mL

// query Quick one: CCCCCCCCCCCC[C@@H](O)[C@H](O)CC[C@H](O)[C@@H]1CC[C@@H](C[C@H](O)CCCCC[C@@H](O)CC2=C[C@H](C)OC2=O)O1 [ANNOPENTOCIN A]
// result 17.9 µg/mL
